biological target: PIM3 serine/threonine kinase (Homo sapiens); assay: PIM3 serine/threonine kinase inhibitory effect; conditions: PIM3 serine/threonine kinase activity; ATP 10 μM; 30° C., 30 minutes
Counter-ions that a name gives are not always drawn.
MEASURED_METRIC: pIC50
Answers are plain numbers, as −log10 of the molar value.

Worked cases, pIC50 given:
N[C@H]1CC[C@H](CNc2cc(-c3n[nH]c(=O)o3)ccc2C(F)(F)F)CC1 [Example 55, hydrochloride] ... 8.30
N[C@H]1CC[C@H](Nc2cc(-c3n[nH]c(=O)o3)ccc2C(F)(F)F)CC1 [Example 34, hydrochloride] ... 7.80
C[C@@H](Nc1cc(-c2n[nH]c(=O)o2)ccc1C(F)(F)F)C1CCNCC1 [Example 59, hydrochloride] ... 7.07

As a next step, examine the compound that follows.
Exam item: # return recorded pIC50 for input N[C@H]1CC[C@H](CNc2cc(-c3n[nH]c(=O)o3)ccc2OC(F)(F)F)CC1 [Example 66, hydrochloride]
Marked response: 7.74
